Record set: IC50 | Vascular endothelial growth factor receptor 2 (Homo sapiens) | literature, multiple sources.

Exam item: Under Vascular endothelial growth factor receptor 2 (Homo sapiens): report IC50 of "COc1ccc(Cl)c(Nc2ncnc3cccc(OC4CCN(C)CC4)c23)c1" .
Marked response: > 5 µM

Exam item: Under Vascular endothelial growth factor receptor 2 (Homo sapiens): report IC50 of "CCN(Cc1cc(Nc2nc(C)cn3c(-c4cn[nH]c4)cnc23)sn1)C(C)(C)CO" .
Marked response: ≤ 0.001 µM

Exam item: Under Vascular endothelial growth factor receptor 2 (Homo sapiens): report IC50 of "Cc1ccn(-c2ccccc2)c(=O)c1-c1ccc2nc(N)ncc2c1" .
Marked response: > 1 µM

Exam item: Under Vascular endothelial growth factor receptor 2 (Homo sapiens): report IC50 of "COc1ccc(-c2cncc(Oc3cccc(NC(=O)Nc4cc(C(C)(C)C)on4)c3)n2)cc1" .
Marked response: > 2 µM
